System Tested: human Smoothened receptor (Homo sapiens, UniProt Q99835)
Sequence (Q99835 28-787): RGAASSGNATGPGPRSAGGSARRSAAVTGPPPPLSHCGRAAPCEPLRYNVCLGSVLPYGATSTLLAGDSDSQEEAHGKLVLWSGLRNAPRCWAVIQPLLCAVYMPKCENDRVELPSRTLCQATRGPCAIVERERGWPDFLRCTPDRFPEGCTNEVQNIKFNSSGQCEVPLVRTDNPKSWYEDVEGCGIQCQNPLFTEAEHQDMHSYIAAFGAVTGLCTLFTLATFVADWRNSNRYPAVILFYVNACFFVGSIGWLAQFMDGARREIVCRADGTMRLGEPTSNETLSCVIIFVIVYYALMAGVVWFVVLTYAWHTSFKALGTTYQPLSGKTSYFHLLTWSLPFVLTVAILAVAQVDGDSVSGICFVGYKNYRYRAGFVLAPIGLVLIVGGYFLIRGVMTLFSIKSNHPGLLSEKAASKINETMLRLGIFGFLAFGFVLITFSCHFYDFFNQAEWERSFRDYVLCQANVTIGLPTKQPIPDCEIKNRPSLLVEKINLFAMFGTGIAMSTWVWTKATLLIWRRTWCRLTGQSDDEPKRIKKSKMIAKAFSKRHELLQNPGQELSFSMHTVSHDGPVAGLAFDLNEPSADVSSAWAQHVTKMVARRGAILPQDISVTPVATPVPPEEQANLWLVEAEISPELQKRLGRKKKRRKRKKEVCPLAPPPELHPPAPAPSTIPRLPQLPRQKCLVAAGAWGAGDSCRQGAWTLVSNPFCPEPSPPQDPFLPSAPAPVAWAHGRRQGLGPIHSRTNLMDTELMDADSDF
Procedure Summary: Smo binding assay, displacement of radio-labeled smoothened agonist, filter binding format (human)
Recorded Conditions: examples of the present invention, exact values; read-out: Human Smo bdg., IC50
Listing of recorded IC50 by entry.
Note: a bare number is incomplete; add the unit.

C[C@@H]1CN(c2nnc(Cc3ccc(F)cc3)c3c2CCC3)CCN1c1cc(C(F)(F)F)c(C(C)(C)O)cn1 :: 2 nM

The reported value for C[C@@H]1CN(c2nnc(Cc3ccc(F)cc3)c3c2CCC3)CCN1c1ncc(C(C)(C)O)c(C(F)(F)F)n1 in terms of IC50 is 2 nM

Sample Cc1c(Oc2ccccc2)nnc(N2CCN(c3cnc(C(C)(C)O)cn3)[C@H](C)C2)c1C ; IC50 observed: 4 nM

molecule Cc1c(Cc2ccccc2)nnc(N2CCN(c3cnc(C(C)(C)O)cn3)[C@@H](C)C2)c1C , IC50 observed: 6 nM

The recorded IC50 for entry Cc1c(C(O)c2ccccc2)nnc(N2CCN(c3cnc(C(C)(C)O)cn3)[C@H](C)C2)c1C (some centres unmarked) equals 5 nM

meta.source: patent US8481542B2
